system: T1, full-length beta-Catenin (Uniprot ID P35222) (Homo sapiens (Human), UniProt P35222 2-781)
T1 construct: The assay text says 'full-length'; also called B-Catenin; bCat
T1 sequence: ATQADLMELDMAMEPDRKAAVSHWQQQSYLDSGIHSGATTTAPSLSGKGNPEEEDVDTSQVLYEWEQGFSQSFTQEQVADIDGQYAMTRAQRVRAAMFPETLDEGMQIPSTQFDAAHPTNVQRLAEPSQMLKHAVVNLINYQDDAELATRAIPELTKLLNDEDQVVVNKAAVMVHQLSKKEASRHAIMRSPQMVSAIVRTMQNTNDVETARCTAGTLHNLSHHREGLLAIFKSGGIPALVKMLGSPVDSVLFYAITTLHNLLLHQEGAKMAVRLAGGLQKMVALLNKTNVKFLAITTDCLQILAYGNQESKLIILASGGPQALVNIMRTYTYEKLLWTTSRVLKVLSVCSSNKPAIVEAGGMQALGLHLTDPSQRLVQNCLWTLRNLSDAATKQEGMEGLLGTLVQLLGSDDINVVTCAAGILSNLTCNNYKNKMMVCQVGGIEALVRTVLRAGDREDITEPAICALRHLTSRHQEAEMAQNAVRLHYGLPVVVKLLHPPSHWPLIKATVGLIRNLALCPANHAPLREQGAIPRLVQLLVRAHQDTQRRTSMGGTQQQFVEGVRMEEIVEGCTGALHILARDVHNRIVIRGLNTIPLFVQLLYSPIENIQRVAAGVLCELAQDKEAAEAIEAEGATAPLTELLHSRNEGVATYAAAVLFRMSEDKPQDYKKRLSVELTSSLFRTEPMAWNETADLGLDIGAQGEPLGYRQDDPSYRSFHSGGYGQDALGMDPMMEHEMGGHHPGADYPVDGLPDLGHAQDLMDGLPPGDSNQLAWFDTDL
assay.info: AlphaScreen competition vs biotin-TCF4(10-53) on full-length beta-catenin
Starred links: 1 amine or outer side, 2 acyl side, 3 side chain; linkers in the order of their positions; H or OH if unused. Positions of bridges follow the written chain, without caps; N, C: chain ends. Non-standard residues stand in square brackets, D forms with d. Primed or numbered codes have the meaning given here. RdN″ = (R)-4-(((allyloxy)carbonyl)(methyl)amino)-2-amino-2-methylbutanoic acid (stapling residue), C=CCOC(=O)N(C)CC[C@@](C)(N[*:1])C(=O)[*:2]; ReN = (R)-5-(((allyloxy)carbonyl)(methyl)amino)-2-amino-2-methylpentanoic acid, stapling residue, C=CCOC(=O)N(C)CCC[C@@](C)(N[*:1])C(=O)[*:2]; PyrS(3) = (S)-1-((allyloxy)carbonyl)-3-aminopyrrolidine-3-carboxylic acid, stapling residue, C=CCOC(=O)N1CC[C@@](N[*:1])(C(=O)[*:2])C1; PyrS″ = (S)-1-((allyloxy)carbonyl)-3-aminopyrrolidine-3-carboxylic acid (stapling residue), C=CCOC(=O)N1CC[C@@](N[*:1])(C(=O)[*:2])C1; SeN = (S)-5-(((allyloxy)carbonyl)(methyl)amino)-2-amino-2-methylpentanoic acid, C=CCOC(=O)N(C)CCC[C@](C)(N[*:1])C(=O)[*:2]; SdN = (S)-4-(((allyloxy)carbonyl)(methyl)amino)-2-amino-2-methylbutanoic acid, C=CCOC(=O)N(C)CC[C@](C)(N[*:1])C(=O)[*:2]; Az = 1-((allyloxy)carbonyl)-3-aminoazetidine-3-carboxylic acid (stapling residue), C=CCOC(=O)N1CC(N[*:1])(C(=O)[*:2])C1; PyrS = (S)-1-((allyloxy)carbonyl)-3-aminopyrrolidine-3-carboxylic acid, C=CCOC(=O)N1CC[C@@](N[*:1])(C(=O)[*:2])C1; Az(3) = 1-((allyloxy)carbonyl)-3-aminoazetidine-3-carboxylic acid, C=CCOC(=O)N1CC(N[*:1])(C(=O)[*:2])C1; R7 = (R)-2-amino-2-methylnon-8-enoic acid, C=CCCCCC[C@@](C)(N[*:1])C(=O)[*:2]; R4 = (R)-2-amino-2-methylhex-5-enoic acid, C=CCC[C@@](C)(N[*:1])C(=O)[*:2]; Phe(4-COOH) = N[C@@H](Cc1ccc(C(=O)O)cc1)C(=O)O; S7 = C[C@@](CCCCCC=[*:3])(N[*:1])C(=O)[*:2]; Bip = N[C@@H](Cc1ccc(-c2ccccc2)cc1)C(=O)O; R8 = C=CCCCCCC[C@@](C)(N)C(=O)O; Aad = N[C@@H](CCCC(=O)O)C(=O)O; Cha = N[C@@H](CC1CCCCC1)C(=O)O; R5 = C=CCCC[C@@](C)(N)C(=O)O; hLeu = CC(C)CC[C@H](N)C(=O)O; S5 = C=CCCC[C@](C)(N)C(=O)O
measurement.type: EC50

QUERY: Which EC50 is reported for this binder? Ac-FDA[R8]DDAEFV[PyrS]FWQ-NH2 (staple 4-11; not fully specified; printed as Ac-Phe-Asp-Ala-R8-Asp-Asp-Ala-Glu-Phe-Val-PyrS-Phe-Trp-Gln-NH2, Stapled peptide composition) [I-21]
RESULT: ≥ 10 µM

QUERY: Same for Ac-FDA[ReN]DDAAFV[S5]FWQ-NH2 (staple 4-11, Stapled peptide composition) [I-27]
RESULT: 6.82 µM

QUERY: Same for FDAXDDAAFVXFWQ (not fully specified; Ac-Phe-Asp-Ala-ReN-Asp-Asp-Ala-Ala-Phe-Val-S6-Phe-Trp-Gln-NH2 as printed: N-terminal acetyl, C-terminal amide, ReN at 4 stapled to S6 at 11, Stapled peptide composition) [I-29]
RESULT: ≥ 10 µM

QUERY: Same for Ac-FDA[R8]D[Phe(4-COOH)]AAFV[PyrS″]FWQ-NH2 (staple 4-11, Stapled peptide composition) [I-8]
RESULT: ≥ 10 µM

QUERY: Same for Ac-FDA[R8]D[Bip]AAFV[PyrS(3)]FWQ-NH2 (staple 4-11, Stapled peptide composition) [I-12]
RESULT: ≥ 10 µM

QUERY: Same for FDAXDDAAFVXFWQ (not fully specified; Ac-Phe-Asp-Ala-Az-Asp-Asp-Ala-Ala-Phe-Val-S7-Phe-Trp-Gln-NH2 as printed: N-terminal acetyl, C-terminal amide, Az at 4 stapled to S7 at 11, Stapled peptide composition) [I-32]
RESULT: 7.35 µM

QUERY: Same for Ac-FDA[R8]DDA[Aad]FV[PyrS]FWQ-NH2 (staple 4-11; not fully specified; printed as Ac-Phe-Asp-Ala-R8-Asp-Asp-Ala-Aad-Phe-Val-PyrS-Phe-Trp-Gln-NH2, Stapled peptide composition) [I-24]
RESULT: 8.57 µM

QUERY: Same for Ac-FDA[RdN″]DDAAFV[S7]FWQ-NH2 (staple 4-11, Stapled peptide composition) [I-1]
RESULT: ≥ 10 µM

QUERY: Same for Ac-FDA[R8]DDADFV[PyrS]FWQ-NH2 (staple 4-11; not fully specified; printed as Ac-Phe-Asp-Ala-R8-Asp-Asp-Ala-Asp-Phe-Val-PyrS-Phe-Trp-Gln-NH2, Stapled peptide composition) [I-19]
RESULT: ≥ 10 µM

QUERY: Same for FDAXDDAAFVXFWQ (not fully specified; Ac-Phe-Asp-Ala-RdN-Asp-Asp-Ala-Ala-Phe-Val-S4-Phe-Trp-Gln-NH2 as printed: N-terminal acetyl, C-terminal amide, RdN at 4 stapled to S4 at 11, Stapled peptide composition) [I-42]
RESULT: 9.34 µM

QUERY: Same for Ac-FDA[R8]DDA[Aad]FV[PyrS″]FWQ-NH2 (staple 4-11; also: earlier-eluting HPLC peak, Stapled peptide composition) [I-23]
RESULT: 9.22 µM

QUERY: Same for Ac-FDA[R7]DDAAFV[Az(3)]FWQ-NH2 (staple 4-11, Stapled peptide composition) [I-38]
RESULT: ≥ 10 µM

QUERY: Same for Ac-FDA[R8]D[Cha]AAFV[PyrS]FWQ-NH2 (staple 4-11; not fully specified; printed as Ac-Phe-Asp-Ala-R8-Asp-Cha-Ala-Ala-Phe-Val-PyrS-Phe-Trp-Gln-NH2, Stapled peptide composition) [I-15]
RESULT: ≥ 10 µM

QUERY: Same for Ac-FDA[R8]D[Bip]AAFV[PyrS″]FWQ-NH2 (staple 4-11; not fully specified; printed as Ac-Phe-Asp-Ala-R8-Asp-Bip-Ala-Ala-Phe-Val-PyrS-Phe-Trp-Gln-NH2, Stapled peptide composition) [I-11]
RESULT: ≥ 10 µM

QUERY: Same for Ac-FDA[R8]D[hLeu]AAFV[PyrS]FWQ-NH2 (staple 4-11, Stapled peptide composition) [I-17]
RESULT: ≥ 10 µM

QUERY: Same for Ac-FDA[R8]D[Aad]AAFV[PyrS]FWQ-NH2 (staple 4-11, Stapled peptide composition) [I-6]
RESULT: 6.5 µM

QUERY: Same for Ac-FDA[R5]DDAAFV[SdN]FWQ-NH2 (staple 4-11, Stapled peptide composition) [I-37]
RESULT: ≥ 10 µM

QUERY: Same for FDAXDDAAFVXFWQ (not fully specified; Ac-Phe-Asp-Ala-RgN-Asp-Asp-Ala-Ala-Phe-Val-S8-Phe-Trp-Gln-NH2 as printed: N-terminal acetyl, C-terminal amide, RgN at 4 stapled to S8 at 11, Stapled peptide composition) [I-43]
RESULT: ≥ 10 µM

QUERY: Same for Ac-FDA[R8]DDAAFV[Az]FWQ-NH2 (staple 4-11; not fully specified; printed as Ac-Phe-Asp-Ala-R8-Asp-Asp-Ala-Ala-Phe-Val-Az-Phe-Trp-Gln-NH2, Stapled peptide composition) [I-40]
RESULT: ≥ 10 µM

QUERY: Same for Ac-FDA[R4]DDAAFV[SeN]FWQ-NH2 (staple 4-11, Stapled peptide composition) [I-36]
RESULT: 8.27 µM
